Cited source for all entries: PubChem BioAssay AID504863

# Tested on: diaphorase (Clostridium kluyveri)
# Test Description: diaphorase inhibitors and chemical oxidizers, confirmation, counter-screen for P. falciparum G6PD inhibitor project, biochemical, fluorescence intensity, 30 µM NADPH (AID 504863);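 also: 0% = DMSO with enzyme and 100% = DMSO wells lacking diaphorase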
# Condition Parameters: Diaphorase/resazurin coupled assay, resorufin fluorescence, at 20 µM
This is one part of the list. Calls of active or inactive are those of the source.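 The calls were made as follows: active = inhibition averaging 50% or more, tested at 20 µM; inactive = the rest.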
Classes used: 1.0 for active, 0.0 for inactive

| Molecule | Class |
| --- | --- |
| CC(C)(C)NC(=O)COc1ccc(CNc2ccc3[nH]c(=O)[nH]c3c2)cc1 | 0.0 |
| COc1ccc(OCc2nnc3n2N=C(c2ccccc2)C(CC(=O)O)S3)cc1 (stereo unspecified) | 0.0 |
| C=CCc1ccccc1OCC(=O)N/N=C/c1ccccc1OCC | 0.0 |
| Cc1ccc(NC(=O)Cn2sc3ccccc3c2=O)cc1 | 0.0 |
| O=C(Nc1nnc(S(=O)(=O)N2CCCCCC2)s1)c1cccc(Br)c1 | 0.0 |
| O=c1[nH]c2ccccc2n2c(-c3ccccc3)nnc12 | 0.0 |
| CCSc1nnc(NC(=O)c2ccc(C)cc2)s1 | 1.0 |
| CCOc1ccccc1/C=N/NC(=O)CNC(=O)COc1ccccc1 | 1.0 |
| OCCN1CCN(C(=S)c2ccc(-c3ccccc3)cc2)CC1 | 0.0 |
| COc1c(O)ccc2c1CN1CCc3cc4c(cc3C1C2)OCO4 (stereo unspecified) | 0.0 |
| COc1ccc(CC(=O)NCC(=O)N/N=C/c2cc(Br)ccc2OC)cc1 | 1.0 |

----------
Recorded inhibition for the following molecules
# System: diaphorase (Clostridium kluyveri)
# Test Description: diaphorase inhibitors and chemical oxidizers, confirmation, counter-screen for P. falciparum G6PD inhibitor project, biochemical, fluorescence intensity, 30 µM NADPH (AID 504863);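 also: 0% = DMSO with enzyme and 100% = DMSO wells lacking diaphorase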
# Condition Parameters: Diaphorase/resazurin coupled assay, resorufin fluorescence, at 20 µM, stronger effect = higher value
The list shows a part of the results.

| Molecule | inhibition, % |
| --- | --- |
| c1ccc(-c2cn3c(n2)CCc2ccc4cccnc4c2-3)cc1 | 45 |
| CCN1CCCC1CNC(=O)c1ccc2c(c1)NC(=O)/C(=C\c1ccccc1F)S2 (stereo not drawn) | -9.58 |
| O=[N+]([O-])c1c(NCCO)cc(Sc2nc3ccccc3s2)c2nonc12 | 0.96 |
